# system.tested: AChE (Mus musculus, UniProt P21836)
# Construct: 20 μg of cell lysate or mouse brain membrane proteome; from tissue; host or cells: mouse brain (membrane proteome)
# Sequence (P21836 32-614): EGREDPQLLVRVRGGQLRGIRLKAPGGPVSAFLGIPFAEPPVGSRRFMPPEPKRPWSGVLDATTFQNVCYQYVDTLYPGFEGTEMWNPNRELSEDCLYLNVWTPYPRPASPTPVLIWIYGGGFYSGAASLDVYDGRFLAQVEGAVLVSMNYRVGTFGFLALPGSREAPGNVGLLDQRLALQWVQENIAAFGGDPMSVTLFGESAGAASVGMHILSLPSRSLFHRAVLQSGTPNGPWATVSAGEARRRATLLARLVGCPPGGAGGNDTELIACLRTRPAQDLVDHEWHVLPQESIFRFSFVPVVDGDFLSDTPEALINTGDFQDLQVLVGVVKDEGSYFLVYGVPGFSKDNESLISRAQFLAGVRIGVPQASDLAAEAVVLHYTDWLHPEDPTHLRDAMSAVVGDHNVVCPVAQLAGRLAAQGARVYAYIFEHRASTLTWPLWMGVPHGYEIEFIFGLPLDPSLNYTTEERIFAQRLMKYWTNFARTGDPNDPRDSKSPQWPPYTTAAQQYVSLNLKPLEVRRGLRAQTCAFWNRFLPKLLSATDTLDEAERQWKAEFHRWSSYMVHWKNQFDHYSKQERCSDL
# experiment.description: AChE activity assay with acetylthiocholine in mouse brain proteome
# Format: biochemical
# settings: acetylthiocholine hydrolysis in mouse brain membrane proteome
reported.metric: Cross-reactivity with AChE

CC(C)c1ccccc1OC(=O)NCCc1ccc(F)cc1 [JW464]	cross-reactivity
COc1ccc(CNC(=O)Oc2cccc3c2OC(C)(C)C3)cc1 [JW148]	cross-reactivity

###

# system.tested: KIAA1363 (Mus musculus, UniProt Q8BLF1)
# Construct: ABPP analysis of KIAA1363 activity in mouse brain membrane proteome; from tissue; host or cells: mouse brain (membrane fraction)
# Sequence (Q8BLF1 whole entry): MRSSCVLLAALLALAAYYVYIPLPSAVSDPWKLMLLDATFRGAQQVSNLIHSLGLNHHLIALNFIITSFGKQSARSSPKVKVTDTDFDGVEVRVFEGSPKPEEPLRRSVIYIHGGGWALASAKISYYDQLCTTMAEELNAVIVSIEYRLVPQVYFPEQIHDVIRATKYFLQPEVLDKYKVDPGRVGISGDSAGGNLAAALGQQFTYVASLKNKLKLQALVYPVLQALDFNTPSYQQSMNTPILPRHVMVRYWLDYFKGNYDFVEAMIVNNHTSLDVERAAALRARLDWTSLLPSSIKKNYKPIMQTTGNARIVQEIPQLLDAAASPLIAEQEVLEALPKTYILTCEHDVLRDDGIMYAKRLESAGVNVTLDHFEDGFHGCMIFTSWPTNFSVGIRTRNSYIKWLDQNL
# experiment.description: Gel-based competitive ABPP of KIAA1363 in mouse brain membrane proteome (FP-rhodamine)
# Format: biochemical
# settings: screened against KIAA1363, Table 1; read-out: IC50 values of less than 1 micromolar
reported.metric: IC50

IN: Using the record for COc1ccc(CNC(=O)Oc2cccc3c2OC(C)(C)C3)cc1 [JW148] , state its measured IC50.
OUT: < 1000 nM

IN: Using the record for Cc1ccc2ccccc2c1OC(=O)NCCc1ccc2ccccc2c1 [JW440] , state its measured IC50.
OUT: < 1000 nM

IN: Using the record for Cc1ccc2ccccc2c1OC(=O)NCCc1ccc(Cl)c(Cl)c1 [JW422] , state its measured IC50.
OUT: < 1000 nM

IN: Using the record for CCOc1ccccc1OC(=O)NCCc1ccc2ccccc2c1 , state its measured IC50.
OUT: < 1000 nM

IN: Using the record for CCOc1ccccc1OC(=O)NCc1ccc(Cl)cc1 [JW398, 2-ethoxyphenyl 4-chlorobenzylcarbamate] , state its measured IC50.
OUT: < 1000 nM

IN: Using the record for Cc1ccc2ccccc2c1OC(=O)NCCc1ccc2c(c1)OCO2 [JW417] , state its measured IC50.
OUT: < 1000 nM

IN: Using the record for COc1cccc(CCNC(=O)Oc2c(C)ccc3ccccc23)c1 [JW437] , state its measured IC50.
OUT: < 1000 nM

IN: Using the record for O=C(NCCc1cccs1)Oc1ccc(-n2cccc2)cc1 [JW413] , state its measured IC50.
OUT: < 1000 nM

IN: Using the record for O=C(NCc1ccc(Cl)cc1)Oc1ccc(-n2cccc2)cc1 [JW392] , state its measured IC50.
OUT: < 1000 nM
